tested on: U2OS; experiment: Incucyte cell viability with U2OS; format: toxicity, cell-based; conditions: human, 18 h, 10 µM, compound concentration 10 uM, replicate number 2; further: unitless GR value; below 1 slowed growth and below 0 cell loss
OBSERVATION_TYPE: Growth Rate
One number for each entry.

>>> obs_value("O=C(NCc1ccc(F)cc1)C1CCN(S(=O)(=O)c2cc(Cl)cc(Cl)c2)CC1")
0.98
>>> obs_value("Cc1ncc(C(=O)Nc2cc(C(C)(C)C)on2)cc1-n1cc(-c2cnn(C)c2C)nn1.Cl")
0.92
>>> obs_value("CC1CCN(c2ccnc(NCc3cn(C)cn3)n2)CC1")
0.86
>>> obs_value("Cc1c[nH]c(-c2cnc(NCCNc3ccc(C#N)cn3)nc2-c2ccc(Cl)cc2Cl)n1")
0.93
>>> obs_value("CC#CC(=O)N1CCN(c2nc(-c3ccc(Oc4ccccc4)cc3)c(C(N)=O)s2)CC1")
0.94
>>> obs_value("Fc1cccc(-n2cnc3c(NCc4nc5ccc(F)c(F)c5[nH]4)nc(N4CCOCC4)nc32)c1")
0.61
>>> obs_value("CN1CCN(c2ccnc(NCCc3ccccc3)n2)CC1 [TP-040n]")
0.96
>>> obs_value("COc1cc(-c2cncc(-c3cnn(C4CCNCC4)c3)c2)cc(OC)c1OC")
0.99

For every listed record, write down its Growth Rate.
1. CCNc1ccc(-c2nn(-c3ccccc3C)c3c2C(C)Cc2nc(NC(=O)OC)sc2-3)cn1.O=C(O)C(F)(F)F (configuration not stated)
2. COc1ccc(S(=O)(=O)N2CCOCC2)cc1Nc1ccc2c(n1)N(C1CCN(C)CC1)[C@H](C)C(=O)N2C
3. N=C(N)NCCC[C@@H](NC(=O)C(c1ccccc1)c1ccccc1)C(=O)NCc1ccc(CNC(N)=O)cc1.O=C(O)C(F)(F)F
4. NC(=O)c1ccc(-c2nc(-c3ccc4c(c3)OCO4)c(-c3ccccn3)[nH]2)cc1.O
5. Cc1cc(Cn2c(N3CC4(CNC4)C3)nc3cc(Cl)cc(N4CCN(C)CC4)c32)cc(C)c1F
6. Cl.NC(=O)c1ccccc1Nc1nc(-c2ccc(N3CCOCC3)cc2)cc2ncccc12
7. CCn1c(-c2nonc2N)nc2c(C#CC(C)(C)O)ncc(OCC3CCCNC3)c21 (configuration not stated)
8. N#Cc1ccnc(Nc2cc(C3CCN(C4COC4)CC3)cc(N3CCC(F)(F)C3)n2)c1

Resp:
1. 0.25
2. 0.79
3. 0.99
4. 0.79
5. 0.98
6. 0.25
7. 0.84
8. 0.46

For every listed record, write down its Growth Rate.
1. CCC(=O)Nc1cc(Nc2cc(NC3CC3)n3ncc(C#N)c3n2)ccc1C
2. Clc1ccc(-c2nc3sccn3c2/C=N/OCc2ccc(Cl)c(Cl)c2)cc1
3. CCc1ccc(-c2ncn(CC3(F)CCN(C)CC3)c2-c2ccnc3[nH]ccc23)nc1
4. CNc1nc(-c2ccc3c(N)n[nH]c3c2)cc(N2C[C@@H](C(=O)NC3CCCCC3)CC[C@H]2C)n1

Resp:
[0.54, 0.95, 0.83, 0.82]

For every listed record, write down its Growth Rate.
1. O=C(O)CCCCCC[C@@H]1C(=O)NC(=O)N1CCC(O)C1CCCCC1 (some centres not stated)
2. Cc1nnc2n1-c1sc3c(c1C(c1ccccc1Cl)=NC2)C[C@H](C(=O)N1CCOCC1)C3
3. CC(C)(C)c1cnc(CSc2cnc(NC(=O)C3CCN(CC(=O)NCCOCCOCCOCCNc4cccc5c4C(=O)N(C4CCC(=O)NC4=O)C5=O)CC3)s2)o1 (configuration not stated)
4. COc1nc2ccc([C@@](O)(c3ccccc3)C3CCN(C(C)=O)CC3)cc2c(Cl)c1Cc1ccc(-n2cccn2)cc1
5. Nc1ncc2c(n1)-c1c([nH]c3ccc(C4CC4)cc13)CCCC2
6. O=C(N[C@@H]1C2CCN(CC2)[C@H]1Cc1cccnc1)c1cc2ccccc2o1

Resp:
[0.87, 0.93, -0.02, 0.7, 0.94, 0.99]

For every listed record, write down its Growth Rate.
1. Cc1nc2cccnc2n2c(-c3cc([C@@]4(O)CCCOC4)ccc3Cl)nnc12
2. O=C1NC(NC23CC4CC(CC(C4)C2)C3)=N/C1=C\c1ccc2ncsc2c1
3. CS(=O)(=O)CCNCc1ccc(-c2ccc3ncnc(Nc4ccc(OCc5cccc(F)c5)c(Cl)c4)c3c2)o1
4. COCCN1CCN(CCn2ccc(Nc3ncc4c(n3)-c3c(nn(C)c3-c3ccccc3)C[C@H]4C)n2)CC1
5. CC(C)c1cnc(NC(=O)Cc2ccccc2)s1

Resp:
0.96
0.87
0.99
-0.83
0.97
